These measurements were taken from patent US4346076A.

Tested on: Staphylococcus aureus
Procedure text: in vitro antibacterial activity, agar dilution
Format: cell-based
Experimental parameters: read-out: Minimum Inhibitory Concentration
Measured metric: MIC
Value and unit, in that order.

Field: example entries. Status: answers known.
{"columns": ["Molecule", "Measured on", "Result"],
 "data": [
  ["Cn1nnnc1Cn1nnnc1SCC1=C(C(=O)O)N2C(=O)[C@@H](NC(=O)Cc3cccs3)[C@H]2SC1 [B]", "Staphylococcus aureus", "4 µg/mL"],
  ["CO/N=C(\\C(=O)N[C@@H]1C(=O)N2C(C(=O)O)=C(CSc3nnn(Cc4nnn[nH]4)n3)CS[C@H]12)c1csc(N)n1 [G]", "Staphylococcus aureus", "32 µg/mL"]
]}

State the recorded MIC for this entry: O=CO[C@@H](C(=O)N[C@@H]1C(=O)N2C(C(=O)O)=C(CSc3nnnn3Cc3nnn[nH]3)CS[C@H]12)c1ccccc1 [C]
16 µg/mL

// returns reported MIC for input CO/N=C(\C(=O)N[C@@H]1C(=O)N2C(C(=O)O)=C(CSc3nnnn3Cc3nnnn3C)CS[C@H]12)c1csc(N)n1 [F]
8 µg/mL
